Values were extracted from patent US10501479B2.

We begin with a simple list: items and their reported pEC50.
measurement.target: recombinant human ghrelin receptor (HEK293/GRLN) (Homo sapiens, UniProt Q92847)
Construct: expressed in transfected cells
assay.details: Ghrelin inverse agonist potency (EC50) with IP-1 (IP-One HTRF) assay
Format: cell-based
reported.conditions: IP-1 assay, HEK293/GRLN; read-out: Activity EC50 (ghrelin inverse agonist potency)
pEC50: −log10 of the molar value.
measurement.label: pEC50

INSERT INTO assay_data (compound, measurement_label, endpoint_result) VALUES
  ('COc1cccc(OC)c1C(C)NC(=O)Nc1ccc(S(=O)(=O)Cc2ccc3c(c2)CNC3)cc1 (stereo not shown) [H1450]', 'pEC50', 6.74),
  ('CC(NC(=O)Nc1ccc(S(=O)(=O)Cc2ccc3c(c2)CNC3)cc1)c1ccc(F)cc1 (stereo not shown) [H1262]', 'pEC50', 8.12),
  ('COc1cc(S(=O)(=O)Cc2ccc3c(c2)CNC3)ccc1NC(=O)NC(C)c1cccc2ccccc12.O=C(O)C(F)(F)F (stereo not shown) [H1419]', 'pEC50', 9.30),
  ('CC(NC(=O)Nc1ccc(S(=O)(=O)Nc2ccc3c(c2)CCN(C)C3)cc1)c1ccccc1F (stereo not shown) [H1347]', 'pEC50', 8.10);

* * *

assay.details: Plasma protein binding (PPB), mouse
Format: in vitro ADME
Values of fraction unbound greater than or equal to 0.04 map to class 1; values below map to class 0.

INSERT INTO assay_data (molecule, label_class) VALUES
  ('COc1cc(S(=O)(=O)Cc2ccc3c(c2)CC(C)NC3)ccc1NC(=O)NC(C)c1ccccc1 (centres unmarked)', 'class 1'),
  ('C[C@H](NC(=O)Nc1ccc2c(c1)CC(c1ccc3c(c1)CNC3)S2(=O)=O)c1ccccc1 (some centres unmarked)', 'class 1'),
  ('COc1cc(S(=O)(=O)Cc2ccc3c(c2)CCNC3)ccc1NC(=O)NC(C)c1cccc(Cl)c1Cl.Cl (centres unmarked)', 'class 0'),
  ('COc1cc(S(=O)(=O)Cc2ccc3c(c2)CNC3)ccc1NC(=O)NC(C)c1ccccc1F.O=C(O)C(F)(F)F (centres unmarked)', 'class 1'),
  ('CC(NC(=O)Nc1ccc(S(=O)(=O)Nc2ccc3c(c2)CCN(C)C3)cc1)c1cccc(Cl)c1Cl (centres unmarked)', 'class 0'),
  ('COc1ccc([C@@H](C)NC(=O)Nc2ccc(S(=O)(=O)Cc3ccc4c(c3)CCN(C)C4)cc2)c(Cl)c1Cl', 'class 0'),
  ('COc1cc(S(=O)(=O)Cc2ccc3c(c2)CN(C)C3)ccc1NC(=O)NC(C)c1ccccc1 (centres unmarked)', 'class 1'),
  ('COc1cc(S(=O)(=O)Cc2ccc3c(c2)CNC3)ccc1NC(=O)NC(C)c1cccc(Cl)c1Cl.Cl (centres unmarked)', 'class 0');

* * *

assay.details: Animal PK study in rat via i.v., p.o. and s.c. administration
Format: in vivo
reported.conditions: plasma, iv, 5 mg/kg; rat, i.v.; read-out: PK CL i.v. (R)
measurement.label: clearance (mL/min/kg)

INSERT INTO assay_data (compound, result_units, endpoint_result) VALUES
  ('COc1cc(S(=O)(=O)Cc2ccc3c(c2)CCNC3)ccc1NC(=O)NC(C)c1cccc(Cl)c1Cl.Cl (stereo not shown)', 'mL/min/kg', 35.3);

* * *

assay.details: Plasma protein binding (PPB), human
Format: in vitro ADME
reported.conditions: read-out: PPB (H)
measurement.label: fraction unbound

INSERT INTO assay_data (molecule, measurement_label, endpoint_result) VALUES
  ('C[C@H](NC(=O)Nc1ccc(S(=O)(=O)Cc2ccc3c(c2)CNC3)cc1)c1ccccc1 [H1215]', 'fraction unbound', 0.097),
  ('C[C@H](NC(=O)Nc1ccc(S(=O)(=O)Nc2ccc(CO)cc2)cc1)c1cccc(Cl)c1Cl [H1062]', 'fraction unbound', 0.0012),
  ('C[C@H](NC(=O)Nc1ccc(S(=O)(=O)Cc2ccc(CO)cc2)cc1)c1cccc(Cl)c1Cl [H1060]', 'fraction unbound', 0.0013),
  ('CC(NC(=O)Nc1ccc(S(=O)(=O)Cc2ccc3c(c2)CN(C)C3)cc1)c1ccccc1 (stereo not shown) [H1194]', 'fraction unbound', 0.076);

* * *

measurement.target: GHSR-1a (HEK293/GHSR1a cell line) (Homo sapiens, UniProt Q92847)
Construct: expressed in transfected cells; host or cells: HEK293/GHSR1a cell line
Sequence (Q92847 whole entry): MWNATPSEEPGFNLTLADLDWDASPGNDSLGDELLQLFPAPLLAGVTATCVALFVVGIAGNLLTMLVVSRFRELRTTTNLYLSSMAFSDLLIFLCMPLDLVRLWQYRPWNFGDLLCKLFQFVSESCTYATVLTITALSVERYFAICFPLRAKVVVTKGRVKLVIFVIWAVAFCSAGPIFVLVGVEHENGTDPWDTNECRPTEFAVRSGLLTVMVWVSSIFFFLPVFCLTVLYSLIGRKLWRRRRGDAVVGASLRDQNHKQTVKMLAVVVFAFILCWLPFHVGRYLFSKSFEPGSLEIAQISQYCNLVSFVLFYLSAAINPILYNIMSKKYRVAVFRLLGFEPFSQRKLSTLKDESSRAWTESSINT
assay.details: Ghrelin antagonist potency (IC50) with calcium FLIPR assay, ghrelin 10 nM
Format: cell-based
reported.conditions: ghrelin antagonist potency, read-out: IC50 (Activity)
We begin with a simple list: items and their reported IC50.
measurement.label: IC50 (µM)

INSERT INTO measurements (molecule, measurement_label, qualifier_symbol, endpoint_result) VALUES
  ('COC(=O)Cc1ccc(NS(=O)(=O)c2ccc(NC(=O)N[C@@H](C)c3cccc(Cl)c3Cl)cc2)cc1', 'IC50', '=', 3.02),
  ('CC(c1ccccc1)N(C)C(=O)Nc1ccc(S(=O)(=O)Cc2ccc3c(c2)CNC3)cc1 (centres unmarked)', 'IC50', '=', 0.262),
  ('C[C@H](NC(=O)Nc1ccc(S(=O)(=O)Cc2ccc(C#N)cc2)cc1)c1cccc(Cl)c1Cl', 'IC50', '≥', 30),
  ('CN1Cc2ccc(CS(=O)(=O)c3ccc(NC(=O)NCC4CC4)cc3)cc2C1', 'IC50', '=', 6.4),
  ('COc1ccc([C@H](C)NC(=O)Nc2ccc(S(=O)(=O)Cc3ccc4c(c3)CCN(S(C)(=O)=O)C4)cc2)c(Cl)c1Cl', 'IC50', '=', 14.9),
  ('CC(NC(=O)Nc1ccc(S(=O)(=O)Cc2ccc3c(c2)CN(CC2CC2)C3)cc1)c1ccccc1 (centres unmarked)', 'IC50', '=', 0.00361),
  ('C[C@H](NC(=O)Nc1ccc(S(=O)(=O)Nc2ccccc2)cc1)c1cccc(Cl)c1Cl', 'IC50', '>', 30),
  ('O=C(Nc1ccccc1)Nc1ccc(S(=O)(=O)Cc2ccc3c(c2)CNC3)cc1', 'IC50', '=', 0.264);

* * *

measurement.target: recombinant human ghrelin receptor (HEK293/GRLN) (Homo sapiens, UniProt Q92847)
Construct: expressed in transfected cells
assay.details: Ghrelin inverse agonist potency (EC50) with IP-1 (IP-One HTRF) assay
Type: cell-based
reported.conditions: inverse agonist potency, IP-1 assay; read-out: EC50 (Activity)
pEC50: −log10 of the molar value.
We begin with a simple list: items and their reported pEC50.
measurement.label: pEC50

INSERT INTO measurements (compound_structure, endpoint_result) VALUES
  ('C[C@H](NC(=O)Nc1ccc(S(=O)(=O)Nc2ccc(CN)cc2)cc1)c1cccc(Cl)c1Cl', 6.96),
  ('Cc1oc(=O)oc1CN1CCc2cc(CS(=O)(=O)c3ccc(NC(=O)N[C@@H](C)c4cccc(Cl)c4Cl)cc3)ccc2C1', 8.35),
  ('C[C@H](NC(=O)Nc1ccc(S(=O)(=O)Cc2ccc3c(c2)CCOC3)cc1)c1cccc(Cl)c1Cl', 6.24),
  ('CC(C)(C)NC(=O)Nc1ccc(S(=O)(=O)Cc2ccc3c(c2)CNC3)cc1', 5.27),
  ('COc1ccc([C@H](C)NC(=O)Nc2ccc(S(=O)(=O)Nc3ccc(CCN)cc3)cc2)c(Cl)c1Cl', 7.49),
  ('O=C(NCc1ccsc1)Nc1ccc(S(=O)(=O)Cc2ccc3c(c2)CNC3)cc1', 5.94),
  ('COc1ccc([C@H](C)NC(=O)Nc2ccc(S(=O)(=O)Nc3ccc4c(c3)CCN(C(C)=O)C4)cc2)c(Cl)c1Cl', 5.79),
  ('O=C(Nc1ccccc1)Nc1ccc(S(=O)(=O)Cc2ccc3c(c2)CNC3)cc1', 6.50);

* * *

We begin with a simple list: items and their reported pEC50.
measurement.target: recombinant human ghrelin receptor (HEK293/GRLN) (Homo sapiens, UniProt Q92847)
Construct: expressed in transfected cells
assay.details: Ghrelin inverse agonist potency (EC50) with IP-1 (IP-One HTRF) assay
Assay type: cell-based
reported.conditions: inverse agonist potency, IP-1 assay; read-out: EC50 (Activity)
pEC50: −log10 of the molar value.
measurement.label: pEC50

INSERT INTO assay_data (compound, endpoint_result) VALUES
  ('O=C(NCc1cccc(Cl)c1Cl)Nc1ccc(S(=O)(=O)Cc2ccc3c(c2)CCNC3)cc1 [H1040]', 6.79),
  ('C[C@H](NC(=O)Nc1ccc(S(=O)(=O)Cc2ccc(CC(C)(C)N)cc2)cc1)c1cccc(Cl)c1Cl [H0969]', 7.72),
  ('CC(C)C(C)NC(=O)Nc1ccc(S(=O)(=O)Cc2ccc3c(c2)CN(C)C3)cc1 (stereo not shown) [H1229]', 6.43),
  ('C[C@H](NC(=O)Nc1ccc(S(=O)(=O)Cc2ccc3c(c2)COCC3)cc1)c1cccc(Cl)c1Cl [H1097]', 6.44),
  ('C[C@@H](NC(=O)Nc1ccc(S(=O)(=O)Cc2ccc3c(c2)CNC3)cc1)c1ccccc1 [H1214]', 6.83),
  ('CC(C)(N)Cc1ccc(CS(=O)(=O)c2ccc(NC(=O)NCc3cccc(Cl)c3Cl)cc2)cc1 [H0996]', 7.19),
  ('C[C@H](NC(=O)Nc1ccc(S(=O)(=O)Nc2ccc(CC(C)(C)N)cc2)cc1)c1ccc(-c2cnccn2)c(Cl)c1Cl [H0906]', 8.17),
  ('C[C@H](NC(=O)Nc1ccc(S(=O)(=O)Cc2cnc(N)nc2)cc1)c1cccc(Cl)c1Cl [H1130]', 5.89),
  ('Cc1ccc(CS(=O)(=O)c2ccc(NC(=O)N[C@@H](C)c3cccc(Cl)c3Cl)cc2)cc1 [H0964]', 5.61),
  ('CC(NC(=O)Nc1ccc(S(=O)(=O)Cc2ccc3c(c2)CCNC3)cc1)c1ccccc1Cl (stereo not shown) [H1041]', 7.26),
  ('C[C@H](NC(=O)Nc1ccc(S(=O)(=O)Nc2ccc(-c3cnc[nH]3)cc2)cc1)c1cccc(Cl)c1Cl [H1109]', 6.87),
  ('C[C@H](NC(=O)Nc1ccc(S(=O)(=O)Nc2ccc(CC(C)(C)N)cc2)cc1)c1cccc(Cl)c1Cl.Cl [H0943]', 8.60),
  ('CCN1Cc2ccc(CS(=O)(=O)c3ccc(NC(=O)NC(C)c4ccccc4)cc3)cc2C1 (stereo not shown) [H1221]', 7.41),
  ('C[C@H](NC(=O)Nc1ccc(S(=O)(=O)Nc2ccc3c(c2)CCNC3)cc1)c1cccc(Cl)c1Cl.Cl [H1004]', 8.40),
  ('C[C@H](NC(=O)Nc1ccc(S(=O)(=O)Nc2ccc(N)cn2)cc1)c1cccc(Cl)c1Cl.Cl [H1127]', 7.02),
  ('C[C@H](NC(=O)Nc1ccc(S(=O)(=O)Nc2ccc3c(c2)CCNC3)cc1)c1ccc(-c2cnccn2)c(Cl)c1Cl [H1006]', 7.43);
